All values here come from patent US20100278834A1.

Kindly state Reciprocal neutralising titre of culture supernatant (reciprocal titre) for each of the entries shown.
- EXPERIMENTAL SYSTEM: hemagglutinin of H5N1 clade 1 strain HK/491/97 (influenza A virus HK/491/97 (H5N1))
- TEST DETAILS: cell-based or functional assay
Numbers only.

Here is how some binders turned out for Reciprocal neutralising titre of culture supernatant (reciprocal titre).
{"BINDER": "FLD20.19 (antibody, V domains shown) VH: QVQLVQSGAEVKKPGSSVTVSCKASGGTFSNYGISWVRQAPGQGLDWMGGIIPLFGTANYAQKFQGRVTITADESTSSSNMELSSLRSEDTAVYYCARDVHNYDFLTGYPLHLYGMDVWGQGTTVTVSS VL: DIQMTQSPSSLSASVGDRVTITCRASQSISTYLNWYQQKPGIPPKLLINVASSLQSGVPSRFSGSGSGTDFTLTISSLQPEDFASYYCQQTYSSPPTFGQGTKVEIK", "ENDPOINT RESULT": 181}
{"BINDER": "FLD127 (antibody, V domains shown) VH: QVQLVESGGGVVQPGRSLRLSCAASGFTFSSYGMHWVRQAPGKGLEWVAVIWYDGDNKYYGDSVKGRFTISRDNSKNTLFLQMNSLRAEDTAVYYCAKDTADHGDYVDLGFFDAWGQGTLVTVSS VL: DIQMTQSPSSVSASVGDRVTITCRASQDVSTWLAWYQLKPGKAPKLLIYAASSLQSGVPSRFSGSGSGTDFTLTVSSLQPEDFATYYCQQANSFPFTFGPGTKVDIK", "ENDPOINT RESULT": 102}

Continue with the binder presented below.
Would you mind telling me what Reciprocal neutralising titre of culture supernatant (reciprocal titre) value was observed for FLD122 (antibody, V domains shown) VH: QFQLVQSGPEVKKPGTSVKVSCKASGYTSTTYGISWVRQVPGQGLEWMGWINPYNGNPHYGQKFQGRVTLTRDTSTNTAYLEILSLRSDDTAVYYCARDGWGQQLVPYYFDYWGQGTLVTVSS VL: DIVMTQSPLSLPVTPGEPASISCRASQSLLHSNGYNYLDWYLQKPGQSPQLLIQLGSTRASGVPDRFSGSGSGTDFTLEISRVEAEDVGVYYCMQALQLPLAFGQGTRLEIK ?
161
